System: AncSZ;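 also: 11-residue human phosphosite peptides and single-mutation variants displayed on the E. coli surface, counted by deep sequencing, each peptide's frequency after selection divided by its frequency in the unselected input library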;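 also: frequency after pTyr selection over input frequency; kinase dosed for 20-30% of maximal phosphorylation in three min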
experimental_details: phosphorylation enrichment, bacterial display (enrichment ratio); higher = better substrate or ligand; peptides without Tyr show the background
property_label: phosphorylation enrichment

[[record]]
query_sequence = "KKRRSYGNSSD [SELENOK_Y52]"
quantitative_readout = 0.554

[[record]]
query_sequence = "RGKLFYQEVPA [METTL11B_Y76_A72G]"
quantitative_readout = 0.844

[[record]]
query_sequence = "NSIGNYYKPWF [DHCR24_Y299]"
quantitative_readout = 1.14

[[record]]
query_sequence = "KSEFAYEIFDK [MYOM2_Y1024_L1022F]"
quantitative_readout = 1.34

[[record]]
query_sequence = "VLSIDYFFPPQ [AR_Y552_P549S_YF]"
quantitative_readout = 5.83

[[record]]
query_sequence = "KVITDYYVDMK [MPP4_Y566]"
quantitative_readout = 1.26

[[record]]
query_sequence = "EAEPYYRSLRD [NPHS1_Y1139]"
quantitative_readout = 0.929

[[record]]
query_sequence = "PFTRNYFVRAV [CYBA_Y87_YF]"
quantitative_readout = 1.04

[[record]]
query_sequence = "YEEDSYVERSQ [RET_Y905_K907E]"
quantitative_readout = 1.27

[[record]]
query_sequence = "ERIEFYELDKK [PMM2_Y145]"
quantitative_readout = 1.05

[[record]]
query_sequence = "DGNIDYAEFAK [MCFD2_Y138_Y135N]"
quantitative_readout = 1.24

[[record]]
query_sequence = "SEEVNYATLTF [CLEC12B_Y7_T6N]"
quantitative_readout = 1.1

[[record]]
query_sequence = "RLPSGYGLAFR [DLK1_Y262_YF]"
quantitative_readout = 0.734

[[record]]
query_sequence = "SRDTCYLVLAV [AMH_Y195_R194C]"
quantitative_readout = 1.52

[[record]]
query_sequence = "ADRSCYDLSCH [GARS1_Y467]"
quantitative_readout = 0.92

